tested-system: T1, canine NGF tagged at the C-terminus with the Flag tag (canine, UniProt A0A8I3PYI3 122-241)
T1 construct: mature; Expressed with baculovirus technology; also called feline NGF (processed form identical)
T1 sequence (A0A8I3PYI3 entry or part of it): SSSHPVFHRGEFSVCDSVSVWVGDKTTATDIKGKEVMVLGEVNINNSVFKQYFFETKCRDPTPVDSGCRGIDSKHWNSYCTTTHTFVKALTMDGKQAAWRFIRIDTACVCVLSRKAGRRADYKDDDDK
protocol-summary: SPR off-rate assay, Fab-SASA on BSA chip
reported-property: Kd (nM)
Answers are plain numbers, in nM.

Known Kd results, listed for orientation:
AHF17597 (Fab, V domains shown, not shown: small tags and cut ends) VH: DVQLVESGGDLVKPGGSLRLTCVASGLSLTSSSMVWVRQAPGKGLQWVSTIYSNRGTYYTDSVKGRFTISKDNAENTLYLQMNNLKTEDTATYYCASIYYYDADYLHWYFDFWGQGALVTVSS VL: EIQMTQSPTSLSASVGDRVTITCRASEGIQNNLSWYQQTPGKAPKLLIYATSILHSGVPSRFSGSGSGTDFTLTISSLQPEDFATYYCQQGYKWPLTFGGGTKLEITR : 0.0544
AHF17606 (Fab, V domains shown, not shown: small tags and cut ends) VH: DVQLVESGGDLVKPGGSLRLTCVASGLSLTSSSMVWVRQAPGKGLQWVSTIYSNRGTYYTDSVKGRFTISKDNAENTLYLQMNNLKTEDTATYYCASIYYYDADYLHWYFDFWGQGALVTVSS VL: EIQMTQSPTSLSASVGDRVTITCRASEGIANNLSWYQQTPGKAPKLLIYATSNLHSGVPSRFSGSGSGTDFTLTISSLQPEDFATYYCQQGYKWPLTFGGGTKLEITR : 0.107

Please state, for each entry, its recorded Kd.
1. AHF17600 (Fab, V domains shown, not shown: small tags and cut ends) VH: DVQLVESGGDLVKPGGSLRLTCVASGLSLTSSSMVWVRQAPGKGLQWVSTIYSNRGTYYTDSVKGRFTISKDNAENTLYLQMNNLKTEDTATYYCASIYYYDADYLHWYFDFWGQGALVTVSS VL: EIQMTQSPTSLSASVGDRVTITCRASEGISNNLSWYQQTPGKAPKLLIYATSVLHSGVPSRFSGSGSGTDFTLTISSLQPEDFATYYCQQGYKWPLTFGGGTKLEITR
2. AHF17598 (Fab, V domains shown, not shown: small tags and cut ends) VH: DVQLVESGGDLVKPGGSLRLTCVASGLSLTSSSMVWVRQAPGKGLQWVSTIYSNRGTYYTDSVKGRFTISKDNAENTLYLQMNNLKTEDTATYYCASIYYYDADYLHWYFDEWGQGALVTVSS VL: EIQMTQSPTSLSASVGDRVTITCRASEGIANNLSWYQQTPGKAPKLLIYATSILHSGVPSRFSGSGSGTDFTLTISSLQPEDFATYYCQQGYKWPLTFGGGTKLEITR

**A:**
[0.329, 0.179]

// data source = patent US20250011410A1
